Tested on: murine neural precursor cells (neurosphere cultures)
METHOD SUMMARY: HTS of LOPAC library against secondary neurosphere cultures, MTT proliferation assay at 3 μM, day 7 (z score, P value)
Format: cell-based, mouse
COND: LOPAC primary screen, neurosphere MTT proliferation, 3 μM, day 7
Counter-ions that a name gives are not always drawn.
MEASURED ATTRIBUTE: Z score
Simply state the number, no unit and no words.

Cc1[nH]c(=O)c(C#N)cc1-c1ccncc1 :: 0.055
CC(C)N(CCC(C(N)=O)(c1ccccc1)c1ccccn1)C(C)C (stereo not shown) [Disopyramide phosphate] :: −0.072
CC(=O)Nc1nnc(S(N)(=O)=O)s1 [Acetazolamide] :: 1.111
CC(O)C(C)OC(=O)[C@@H]1C[C@@H]2c3cccc4c3c(cn4C(C)C)C[C@H]2N(C)C1.O=C(O)/C=C\C(=O)O (stereo partly shown) [LY-53,857 maleate] :: −0.338
Br.Br.N=C(N)SCCc1ccc(CCSC(=N)N)cc1 [1,4-PBIT dihydrobromide] :: −1.179
CN1CCN(c2nc3cc(C(F)(F)F)ccc3n3cccc23)CC1.O=C(O)/C=C\C(=O)O [CGS-12066A (40), reference compound] :: −2.575
Cn1cc(C2=C(c3ccc(Cl)cc3Cl)C(=O)NC2=O)c2ccccc21 :: −2.542
CC(C)(Sc1ccc(CCN(CCCCC2CCCCC2)C(=O)NC2CCCCC2)cc1)C(=O)O :: −0.992
C[C@@H]1O[C@@H](O[C@H]2C[C@@H](O)[C@]3(CO)[C@H]4[C@H](O)C[C@]5(C)[C@@H](C6=CC(=O)OC6)CC[C@]5(O)[C@@H]4CC[C@]3(O)C2)[C@H](O)[C@H](O)[C@H]1O :: −1.568
CC1(C)NC(=O)N(c2ccc([N+](=O)[O-])c(C(F)(F)F)c2)C1=O [Nilutamide] :: 0.119

Name the reported Z score value associated with the compound COc1cc2nc(N3CCN(C(=O)c4ccco4)CC3)nc(N)c2cc1OC [Prazosin hydrochloride]
−2.902

Entry Fc1ccc(C(c2ccc(F)cc2)N2CCN(C/C=C/c3ccccc3)CC2)cc1 [Flunarizine dihydrochloride] has what Z score?
0.395

Which Z score reading was recorded for the compound CNCCC=C1c2ccccc2CCc2ccccc21 [Nortriptyline hydrochloride] ?
−1.095

Given the compound O=C1Nc2ccc(I)cc2/C1=C/c1cc(Br)c(O)c(Br)c1 , what is its reported Z score?
−0.162

GET /values?readout=Z score&item= Oc1ccc(C2CNCCc3c2cc(O)c(O)c3Cl)cc1 (stereo not shown) [Fenoldopam bromide]
0.052

GET /values?readout=Z score&item= CC1=C(/C=C/C(C)=C/C=C/C(C)=C/C(=O)O)C(C)(C)CCC1
−0.866

###

Tested on: murine neural precursor cells (neurosphere cultures)
METHOD SUMMARY: HTS of LOPAC library against secondary neurosphere cultures, MTT proliferation assay at 3 μM, day 7 (z score, P value)
Type: cell-based, mouse
COND: LOPAC library screen, 3 μM, MTT, neurosphere cultures
Where a name gives a salt, the structure may show the parent alone.
Quick rule: Z Score of at least 0.5 means satisfied, below that means not satisfied.

Look over these answered cases.
CC(C)C(=O)c1c(C(C)C)nn2ccccc12 [Ibudilast] :: not satisfied
Cn1c(=O)c2[nH]cnc2n(C)c1=O [Theophylline] :: not satisfied
CNCCCC1c2ccccc2C=Cc2ccccc21 [Protriptyline hydrochloride] :: satisfied
Cc1nc2ccccn2c(=O)c1CCN1CCC(C(=O)c2ccc(F)cc2)CC1 [Pirenperone] :: not satisfied
CC1(C)NC(=O)N(c2ccc([N+](=O)[O-])c(C(F)(F)F)c2)C1=O [Nilutamide] :: not satisfied

Has CC(C)N(CCC(C(N)=O)(c1ccccc1)c1ccccn1)C(C)C (stereo not drawn) [Disopyramide phosphate] a recorded Z Score greater than or equal to 0.5?
not satisfied

Check the entry C[C@@H]1C(=O)NC2=Nc3cccc(Cl)c3CN21 [Quazinone] : does Z Score equal or exceed 0.5?
not satisfied

###

Test system: murine neural precursor cells (neurosphere cultures)
METHOD SUMMARY: HTS of LOPAC library against secondary neurosphere cultures, MTT proliferation assay at 3 μM, day 7 (z score, P value)
Assay type: cell-based, mouse
COND: 168 h, 3 µM
Structures can show the parent of a compound that is named as a salt.
MEASURED ATTRIBUTE: Z Score
Give a plain numeric answer without units written out.

NCCc1c[nH]c2ccc(O)cc12 [Serotonin hydrochloride] :: −2.197

Turning to the following compound.
Given the compound CC(=O)N1CCN(c2ccc(OCC3COC(Cn4ccnc4)(c4ccc(Cl)cc4Cl)O3)cc2)CC1 (centres unmarked) , what is its reported Z Score?
0.586

###

System: murine neural precursor cells (neurosphere cultures)
METHOD SUMMARY: HTS of LOPAC library against secondary neurosphere cultures, MTT proliferation assay at 3 μM, day 7 (z score, P value)
Format: cell-based, mouse
COND: LOPAC primary screen, neurosphere MTT proliferation, 3 μM, day 7
Counter-ions that a name gives are not always drawn.
MEASURED ATTRIBUTE: Z score
Respond numerically, and do not add a unit to the figure.

Cn1cnc([N+](=O)[O-])c1Sc1ncnc2nc[nH]c12 :: −7.913
COc1ccc(-n2nc(C(F)(F)F)cc2-c2ccc(Cl)cc2)cc1 :: 1.113
O=C(CCCN1CCC2(CC1)C(=O)NCN2c1ccccc1)c1ccc(F)cc1 [Spiperone hydrochloride] :: −0.517
CC1=NN=C(c2ccc(N)cc2)c2cc3c(cc2C1)OCO3 [GYKI 52466 hydrochloride] :: −1.864

Suppose we examine the molecule COc1ccccc1N1CCN(CCN(C(=O)c2ccc(F)cc2)c2ccccn2)CC1.Cl.Cl [p-MPPF dihyrochloride] ; what Z score value has been reported?
−2.160

Which Z score reading was recorded for the molecule CC(C)[C@H](CO)Nc1nc(Nc2cccc(Cl)c2)c2ncn(C(C)C)c2n1 ?
−11.234

Name the recorded Z score for N.N.O=C([O-])C1(C(=O)[O-])CCC1.[Pt+2] .
−6.204

What Z score value was documented for this molecule, CC(C(=O)O)c1cccc(C(=O)c2ccccc2)c1 (centres unmarked) ?
−1.164

###

System: murine neural precursor cells (neurosphere cultures)
METHOD SUMMARY: HTS of LOPAC library against secondary neurosphere cultures, MTT proliferation assay at 3 μM, day 7 (z score, P value)
Type: cell-based, mouse
COND: LOPAC library screen, 3 μM, MTT, secondary neurosphere cultures, day 7
Structures can show the parent of a compound that is named as a salt.
Consider the following compounds and their measured Z Score readings.
Would you mind answering with just the numeric figure?

C/C=C(/C)C(=O)O[C@H]1C(C)=C2[C@H]([C@@H]1OC(=O)CCCCCCC)[C@@](C)(OC(C)=O)C[C@H](OC(=O)CCC)[C@@]1(O)[C@H]2OC(=O)[C@@]1(C)O :: −9.559
C[C@]12CCC(=O)C=C1CC[C@@H]1[C@@H]2[C@@H](O)C[C@@]2(C)[C@H]1CC[C@]2(O)C(=O)CO [Hydrocortisone] :: −3.049
C[C@]12C[C@H](O)[C@H]3[C@@H](CCC4=CC(=O)CC[C@@]43C)[C@@H]1CC[C@@H]2C(=O)CO :: −2.285
CC[C@H]1CN2CCc3cc(OC)c(OC)cc3[C@@H]2C[C@@H]1C[C@H]1NCCc2cc(OC)c(OC)cc21 [Emetine dihydrochloride hydrate] :: −10.63

Recorded Z Score for CC(=O)N[C@H](C(=O)O)C(C)(C)SN=O (racemic) , please?
−1.645

What does the data say about its Z Score? Entry: C=CCn1c(=O)c2c(nc(-c3ccc(S(=O)(=O)O)cc3)n2C)n(C)c1=O
−2.178

Which Z Score is reported for this compound? CN1CCc2cccc3c2[C@H]1Cc1ccc(O)c(O)c1-3 [(R)-(−)-Apomorphine (6), (R)-(−)-Apomorphine]
−11.27

# lookup: Z Score of COC(=O)[C@@H](N)CCCN=C(N)N[N+](=O)[O-].Cl
−1.411

Quick check: Z Score of CC[C@@H]1C(=O)OC[C@@H]1Cc1cncn1C.Cl [(+)-Pilocarpine hydrochloride] ?
−1.548

I'd like to know its Z Score. The compound in question is Nc1ccncc1
−1.516

Look up Z Score for this compound: O=c1[nH]cc(F)c(=O)[nH]1
−7.749

###

Tested on: murine neural precursor cells (neurosphere cultures)
METHOD SUMMARY: HTS of LOPAC library against secondary neurosphere cultures, MTT proliferation assay at 3 μM, day 7 (z score, P value)
Format: cell-based, mouse
COND: 168 h, 3 µM
Please use Criterion met for Z Score under 0.3 and Criterion not met for everything else, ties included.

Determine whether this compound shows Z Score lower than 0.3 (ties excluded): N[C@@H](Cc1ccc(F)cc1)C(=O)O [p-Fluoro-L-phenylalanine]
Criterion met

Regarding O=C1CCC(c2ccc(-n3ccnc3)cc2)=NN1 [Imazodan] , kindly confirm whether its Z Score is beneath 0.3.
Criterion not met
